// reported TGI per item
System: TK-10 renal
runDescription: NCI tumour cell line growth inhibition, 48 h

{"columns": ["molecule", "TGI"],
 "data": [
  ["CCN(CC)CCCNc1nc2ccccc2c2c(=O)c3cc(Cl)ccc3sc12", "3.97 µM"]
]}

# TGI of Cn1c(=O)c2nc3nnc(C#N)c(N)n3c2n(C)c1=O = > 100 µM

Record O=C(NCC(=O)N1CC[C@H](NC2CCC(O)(c3ccc(-c4ncccn4)cn3)CC2)C1)c1cccc(C(F)(F)F)c1 (some centres undefined) . Reported TGI: > 100 µM

For this molecule ( CC(C)=CC(O)C/C(C)=C/CC/C(C)=C/CCC1(C)C(CCCO)/C(=C(/C)C=O)CCC1(C)O (centres undefined) ), measured TGI is > 100 µM

The reported numbers originate from PubChem BioAssay (NCI).
